tested target: RORγt (RORγ-LBD chimeric receptor) (Homo sapiens, UniProt P51449)
Construct: host or cells: HEK293T
protocol: Luciferase reporter gene assay of RORγt agonistic activity in HEK293T cells
Type: cell-based
condition notes: HEK293T, GAL4 luciferase reporter; read-out: EC50
readout: EC50 (µM)

{"columns": ["molecule", "EC50, µM"],
 "data": [
  ["COCC(C(=O)Nc1cc(Cl)c(-c2ccc(S(=O)(=O)C3CC3)cc2)c(Cl)c1)c1ccc(S(C)(=O)=O)cc1 (single isomer, unassigned) [Example 34]", 0.067]
]}

(I) CCS(=O)(=O)c1ccc(-c2c(Cl)cc(NC(=O)Cc3ccc(S(C)(=O)=O)cn3)cc2Cl)cc1
(II) CC(C)Cc1ccc(-c2c(Cl)cc(NC(=O)Cc3ccc(S(C)(=O)=O)cc3)cc2Cl)cc1C#N [LIT-00093, reference compound]
Task: Sorting by EC50 in descending order, would I or II appear first? Respond with the label that goes with your answer.
Result: II
(II: 0.116 µM, I: 0.053 µM)

====

Below, each entry is listed with its recorded pEC50.
Test system: human PBMC (Th17 cells)
protocol: Th17 differentiation and IL-17 secretion in human PBMC
Assay type: cell-based
condition notes: IL-17 ELISA after 48 hours
When answering, recall that pEC50 equals minus log10 of the concentration in mol/L, and write that number alone.

// worked examples, pEC50 included
{"columns": ["compound", "tested target", "pEC50"],
 "data": [
  ["CCS(=O)(=O)c1ccc(-c2c(Cl)cc(NC(=O)Cc3ccc(S(C)(=O)=O)cn3)cc2Cl)cc1 [Example 9]", "human PBMC (Th17 cells)", 6.44],
  ["CCS(=O)(=O)c1ccc(-c2c(Cl)cc(NC(=O)Cc3ccc(S(=O)(=O)CC)cn3)cc2Cl)cc1 [Example 5]", "human PBMC (Th17 cells)", 7.48],
  ["COCC(C(=O)Nc1cc(Cl)c(-c2ccc(S(=O)(=O)C3CC3)cc2)c(Cl)c1)c1ccc(S(C)(=O)=O)cc1 (single isomer, unassigned) [Example 34]", "human PBMC (Th17 cells)", 7.24],
  ["CS(=O)(=O)c1ccc(CC(=O)Nc2cc(Cl)c(-c3ccc(S(=O)(=O)C4CC4)cc3)c(Cl)c2)cc1 [Example 11]", "human PBMC (Th17 cells)", 7.28],
  ["CS(=O)(=O)c1ccc(C(CO)C(=O)Nc2cc(Cl)c(-c3ccc(S(=O)(=O)C4CC4)cc3)c(Cl)c2)cc1 (single isomer, unassigned) [Example 36]", "human PBMC (Th17 cells)", 7.44],
  ["CCS(=O)(=O)c1ccc(C(COC)C(=O)Nc2cc(Cl)c(-c3ccc(S(C)(=O)=O)cc3)c(Cl)c2)cc1 (stereo not shown) [Example 15]", "human PBMC (Th17 cells)", 7.35],
  ["CCS(=O)(=O)c1ccc(C(COC)C(=O)Nc2cc(Cl)c(-c3ccc(S(=O)(=O)C4CC4)cc3)c(Cl)c2)cc1 (stereo not shown) [Example 16]", "human PBMC (Th17 cells)", 7.56],
  ["CCS(=O)(=O)c1ccc(C(COC)C(=O)Nc2cc(Cl)c(-c3ccc(S(=O)(=O)C4CC4)cc3)c(Cl)c2)cc1 (single isomer, unassigned) [Example 40]", "human PBMC (Th17 cells)", 7.59]
]}

Task: Please give the measured pEC50 for this compound: COCC(C(=O)Nc1ccc(-c2ccc(S(=O)(=O)C3CC3)cc2)c(C(F)(F)F)c1)c1ccc(S(C)(=O)=O)cc1 (single isomer, unassigned) [Example 43]
Result: 6.87

Task: Please give the measured pEC50 for this compound: COCC(C(=O)Nc1cc(Cl)c(-c2ccc(S(C)(=O)=O)cc2)c(Cl)c1)c1ccc(S(=O)(=O)CC2CC2)cc1 (stereo not shown) [Example 18]
Result: 7.53

Task: Please give the measured pEC50 for this compound: COCC(C(=O)Nc1cc(Cl)c(-c2ccc(S(=O)(=O)C3CC3)cc2)c(Cl)c1)c1ccc(S(C)(=O)=O)cc1 (stereo not shown) [Example 20]
Result: 7.72

Task: Please give the measured pEC50 for this compound: CCS(=O)(=O)c1ccc(C(CO)C(=O)Nc2cc(Cl)c(-c3ccc(S(=O)(=O)C4CC4)cc3)c(Cl)c2)cc1 (single isomer, unassigned) [Example 38]
Result: 7.64

Task: Please give the measured pEC50 for this compound: CS(=O)(=O)c1ccc(-c2c(Cl)cc(NC(=O)Cc3ccc(S(=O)(=O)CC4CC4)cc3)cc2Cl)cc1 [Example 17]
Result: 6.95

====

Below, each entry is listed with its recorded Emax.
System: human PBMC (Th17 cells)
protocol: Th17 differentiation and IL-17 secretion in human PBMC
Assay type: cell-based
condition notes: maximum activation rate, IL-17 ELISA after 48 hours
Entry rule: numbers only, all in %.

// worked examples, Emax included
{"columns": ["compound", "Emax, %"],
 "data": [
  ["COCC(C(=O)Nc1cc(Cl)c(-c2ccc(S(=O)(=O)C3CC3)cc2)c(Cl)c1)c1ccc(S(C)(=O)=O)cc1 (single isomer, unassigned) [Example 34]", 195],
  ["CCS(=O)(=O)c1ccc(-c2c(Cl)cc(NC(=O)Cc3ccc(S(C)(=O)=O)cc3)cc2Cl)cc1", 152]
]}

Turning to the following compound.
Task: Please give the measured Emax for this compound: CCS(=O)(=O)c1ccc(C(CO)C(=O)Nc2cc(Cl)c(-c3ccc(S(=O)(=O)C4CC4)cc3)c(Cl)c2)cc1 (single isomer, unassigned)
Result: 179

====

protocol: Metabolic stability in mouse liver microsomes
Type: in vitro ADME, CD-1 mice
condition notes: 60 min
readout: % Remaining (T = 60 min) (%)

{"columns": ["compound", "readout", "unit of measure", "reported value"],
 "data": [
  ["CCS(=O)(=O)c1ccc(CC(=O)Nc2cc(Cl)c(-c3ccc(S(=O)(=O)C4CC4)cc3)c(Cl)c2)cc1 [Example 6]", "% Remaining (T = 60 min)", "%", 78.60]
]}

(P) CCS(=O)(=O)c1ccc(CC(=O)Nc2cc(Cl)c(-c3ccc(S(C)(=O)=O)cc3)c(Cl)c2)nc1 [Example 8]
(Q) CCS(=O)(=O)c1ccc(-c2c(Cl)cc(NC(=O)Cc3ccc(S(=O)(=O)CC)cn3)cc2Cl)cc1 [Example 5]
(R) CCS(=O)(=O)c1ccc(-c2c(Cl)cc(NCC(C(=O)O)c3ccc(S(=O)(=O)CC)cc3)cc2Cl)cc1 (stereo not shown) [Example 12-1]
Task: Sort low-to-high on % Remaining (T = 60 min), please. Submit the labels in the order that the ranking request calls for.
Result: Q, R, P

====

tested target: RORγt (RORγ-LBD chimeric receptor) (Homo sapiens)
Construct: host or cells: HEK293T
protocol: Luciferase reporter gene assay of RORγt agonistic activity in HEK293T cells
Type: cell-based
condition notes: HEK293T, GAL4 luciferase reporter; read-out: EC50
pEC50: −log10 of the molar value.
readout: pEC50

// worked examples, pEC50 included
{"columns": ["compound", "tested target", "readout", "reported value"],
 "data": [
  ["CS(=O)(=O)c1ccc(-c2c(Cl)cc(NC(=O)Cc3ccc(S(C)(=O)=O)cn3)cc2Cl)cc1", "RORγt (RORγ-LBD chimeric receptor) (Homo sapiens)", "pEC50", 5.84],
  ["CCS(=O)(=O)c1ccc(-c2c(Cl)cc(NC(=O)C(COC)c3ccc(S(C)(=O)=O)cc3)cc2Cl)cc1 (centres unmarked)", "RORγt (RORγ-LBD chimeric receptor) (Homo sapiens)", "pEC50", 6.91],
  ["COCC(C(=O)Nc1ccc(-c2ccc(S(=O)(=O)C3CC3)cc2)c(C(F)(F)F)c1)c1ccc(S(C)(=O)=O)cc1 (single isomer, unassigned) [Example 43]", "RORγt (RORγ-LBD chimeric receptor) (Homo sapiens)", "pEC50", 7.24]
]}

(I) CS(=O)(=O)c1ccc(C(CO)C(=O)Nc2cc(Cl)c(-c3ccc(S(=O)(=O)C4CC4)cc3)c(Cl)c2)cc1 (single isomer, unassigned) [Example 36]
(II) CCS(=O)(=O)c1ccc(C(COC)C(=O)Nc2cc(Cl)c(-c3ccc(S(=O)(=O)C4CC4)cc3)c(Cl)c2)cc1 (centres unmarked) [Example 16]
Task: Sorting by pEC50 in descending order, would I or II appear first? Respond with the label that goes with your answer.
Result: I

====

tested target: RORγt (RORγ-LBD chimeric receptor) (Homo sapiens, UniProt P51449)
Construct: host or cells: HEK293T
Sequence (P51449 269-508 limits assumed): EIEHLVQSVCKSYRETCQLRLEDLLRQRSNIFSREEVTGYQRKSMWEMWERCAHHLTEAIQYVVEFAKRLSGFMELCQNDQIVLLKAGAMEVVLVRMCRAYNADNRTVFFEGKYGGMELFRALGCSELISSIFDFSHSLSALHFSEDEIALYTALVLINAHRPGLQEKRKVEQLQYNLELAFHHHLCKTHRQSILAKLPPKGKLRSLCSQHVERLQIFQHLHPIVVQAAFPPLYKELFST
protocol: Luciferase reporter gene assay of RORγt agonistic activity in HEK293T cells
Format: cell-based
condition notes: HEK293T, GAL4 luciferase reporter; read-out: EC50
pEC50: −log10 of the molar value.
readout: pEC50

// worked examples, pEC50 included
{"columns": ["compound", "pEC50"],
 "data": [
  ["CCS(=O)(=O)c1ccc(CC(=O)Nc2cc(Cl)c(-c3ccc(S(=O)(=O)CC)cc3)c(Cl)c2)cc1 [Example 1]", 7.33],
  ["CCS(=O)(=O)c1ccc(-c2c(Cl)cc(NC(=O)C(COC)c3ccc(S(=O)(=O)CC)cc3)cc2Cl)cc1 (centres unmarked) [Example 13]", 7.16],
  ["CS(=O)(=O)c1ccc(CC(=O)Nc2cc(Cl)c(-c3ccc(S(=O)(=O)C4CC4)cc3)c(Cl)c2)cc1 [Example 11]", 7.82],
  ["CS(=O)(=O)c1ccc(C(CO)C(=O)Nc2cc(Cl)c(-c3ccc(S(=O)(=O)C4CC4)cc3)c(Cl)c2)cc1 (centres unmarked) [Example 33]", 7.03],
  ["CCS(=O)(=O)c1ccc(CC(=O)Nc2cc(Cl)c(-c3ccc(S(=O)(=O)C4CC4)cc3)c(Cl)c2)cc1 [Example 6]", 7.89],
  ["CCS(=O)(=O)c1ccc(CC(=O)Nc2cc(Cl)c(-c3ccc(S(=O)(=O)C(C)C)cc3)c(Cl)c2)cc1 [Example 3]", 7.85],
  ["CCS(=O)(=O)c1ccc(C(COC)C(=O)Nc2cc(Cl)c(-c3ccc(S(C)(=O)=O)cc3)c(Cl)c2)cc1 (centres unmarked) [Example 15]", 6.69],
  ["CCS(=O)(=O)c1ccc(CC(=O)Nc2cc(Cl)c(-c3ccc(S(=O)(=O)C4CC4)cc3)c(Cl)c2)nc1 [Example 21]", 7.14]
]}

(I) CCS(=O)(=O)c1ccc(CC(=O)Nc2cc(Cl)c(-c3ccc(S(C)(=O)=O)cc3)c(Cl)c2)cc1 [Example 2]
(II) CCS(=O)(=O)c1ccc(C(CO)C(=O)Nc2cc(Cl)c(-c3ccc(S(=O)(=O)C4CC4)cc3)c(Cl)c2)cc1 (centres unmarked) [Example 22-1]
(III) COCC(C(=O)Nc1cc(Cl)c(-c2ccc(S(=O)(=O)C3CC3)cc2)c(Cl)c1)c1ccc(S(C)(=O)=O)cc1 (centres unmarked) [Example 20]
(IV) CCS(=O)(=O)c1ccc(-c2c(Cl)cc(NC(=O)Cc3ccc(S(=O)(=O)CC)cn3)cc2Cl)cc1 [Example 5]
Task: Sort low-to-high on pEC50, please. Submit the labels in the order that the ranking request calls for.
Result: II, III, IV, I
